tested-on: Ago2 (Flag-tagged, HFT-Ago2) (UniProt Q9UKV8 1-859)
Sequence (Q9UKV8 whole entry): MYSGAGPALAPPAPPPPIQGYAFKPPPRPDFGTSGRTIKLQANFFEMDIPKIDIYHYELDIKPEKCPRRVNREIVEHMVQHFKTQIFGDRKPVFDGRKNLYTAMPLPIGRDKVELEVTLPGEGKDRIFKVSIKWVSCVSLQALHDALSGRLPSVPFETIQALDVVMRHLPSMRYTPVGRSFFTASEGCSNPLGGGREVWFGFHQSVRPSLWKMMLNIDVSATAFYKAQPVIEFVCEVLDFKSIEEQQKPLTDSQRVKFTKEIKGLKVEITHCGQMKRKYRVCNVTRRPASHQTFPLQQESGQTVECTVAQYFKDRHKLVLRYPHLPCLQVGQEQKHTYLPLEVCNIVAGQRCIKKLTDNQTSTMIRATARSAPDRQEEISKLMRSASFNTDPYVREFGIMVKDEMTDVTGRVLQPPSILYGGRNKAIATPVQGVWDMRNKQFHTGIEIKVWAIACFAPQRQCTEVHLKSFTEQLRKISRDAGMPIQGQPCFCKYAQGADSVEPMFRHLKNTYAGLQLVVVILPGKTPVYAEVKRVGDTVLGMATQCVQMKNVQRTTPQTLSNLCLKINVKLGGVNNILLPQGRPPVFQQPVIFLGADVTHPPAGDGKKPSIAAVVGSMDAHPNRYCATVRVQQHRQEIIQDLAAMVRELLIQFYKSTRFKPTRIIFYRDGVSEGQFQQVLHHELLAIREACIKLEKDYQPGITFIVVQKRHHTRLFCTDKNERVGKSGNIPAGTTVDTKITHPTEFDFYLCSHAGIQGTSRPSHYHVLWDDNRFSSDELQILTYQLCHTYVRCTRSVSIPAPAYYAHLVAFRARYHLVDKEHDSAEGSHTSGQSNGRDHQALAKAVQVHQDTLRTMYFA
assay-method-text: filter binding
metric: pKd
// pKd: -log10(molar conc.)

Record miR122-v1 guide / target-1 (seed + sup) (mixed, 5'-phosphate on guide) RNA 1: UGGAGUGUGACAGCGGCGAAAG RNA 2: CCGCAAAAAAAAAAACACUCCUAA , field pKd: 11.25
